Experimental Target: Focal adhesion kinase 1 (Homo sapiens, UniProt Q05397)
Sequence (Q05397 whole entry): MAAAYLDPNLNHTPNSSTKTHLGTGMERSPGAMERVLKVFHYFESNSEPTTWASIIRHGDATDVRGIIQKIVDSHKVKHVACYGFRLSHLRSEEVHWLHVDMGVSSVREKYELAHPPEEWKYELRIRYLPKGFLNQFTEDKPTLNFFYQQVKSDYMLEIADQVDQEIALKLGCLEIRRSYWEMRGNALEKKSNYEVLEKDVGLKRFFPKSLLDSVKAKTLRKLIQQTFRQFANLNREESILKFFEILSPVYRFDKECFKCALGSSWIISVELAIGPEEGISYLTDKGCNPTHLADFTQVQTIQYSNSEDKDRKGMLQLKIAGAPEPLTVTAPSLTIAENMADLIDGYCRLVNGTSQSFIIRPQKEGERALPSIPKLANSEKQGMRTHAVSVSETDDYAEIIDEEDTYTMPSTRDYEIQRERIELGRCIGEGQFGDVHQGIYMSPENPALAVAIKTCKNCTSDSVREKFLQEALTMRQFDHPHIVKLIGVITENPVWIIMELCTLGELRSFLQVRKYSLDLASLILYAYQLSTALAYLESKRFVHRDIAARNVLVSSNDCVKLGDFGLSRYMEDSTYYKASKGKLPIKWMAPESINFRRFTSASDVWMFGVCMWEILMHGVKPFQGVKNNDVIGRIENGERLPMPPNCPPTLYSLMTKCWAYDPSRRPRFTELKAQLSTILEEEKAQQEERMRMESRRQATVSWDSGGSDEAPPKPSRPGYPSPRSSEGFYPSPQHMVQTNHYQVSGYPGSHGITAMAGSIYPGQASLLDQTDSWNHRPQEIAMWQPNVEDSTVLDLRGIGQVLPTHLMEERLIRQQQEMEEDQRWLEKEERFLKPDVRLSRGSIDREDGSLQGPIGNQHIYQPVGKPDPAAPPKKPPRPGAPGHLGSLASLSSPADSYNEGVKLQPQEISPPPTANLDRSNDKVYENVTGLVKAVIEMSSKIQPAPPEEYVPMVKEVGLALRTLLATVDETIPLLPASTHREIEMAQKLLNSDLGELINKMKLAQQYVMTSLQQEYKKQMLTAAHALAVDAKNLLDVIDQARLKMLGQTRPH
Experiment Summary: Inhibition of recombinant FAK (unknown origin) by radiometric kinase assay
Classes (IC50): lower band (below 20 nM), central band (20 nM to below 70 nM), upper band (70 nM or more)

>>> answer_label("COc1cc(Nc2ncc3scc(-c4cccc(N(C)S(C)(=O)=O)c4)c3n2)cc(OC)c1OC")
"central band"
>>> answer_label("CS(=O)(=O)Nc1cccc(-c2csc3cnc(Nc4ccc(N5CCNCC5)cc4)nc23)c1")
"lower band"
>>> answer_label("COc1cc(Nc2ncc3scc(-c4cccnc4)c3n2)cc(OC)c1OC")
"central band"
>>> answer_label("CCN1CCN(c2ccc(Nc3ncc4scc(-c5cccc(NS(C)(=O)=O)c5)c4n3)cc2)CC1")
"lower band"
>>> answer_label("CCN1CCN(c2ccc(Nc3ncc4scc(-c5cccc(N(C)S(C)(=O)=O)c5)c4n3)cc2)CC1")
"central band"
>>> answer_label("CCN1CCN(c2ccc(Nc3ncc4scc(-c5ccccc5[N+](=O)[O-])c4n3)cc2)CC1")
"upper band"
>>> answer_label("COc1cc(Nc2ncc3scc(-c4cccc(C(=O)O)c4)c3n2)cc(OC)c1OC")
"central band"
>>> answer_label("CS(=O)(=O)Nc1cccc(-c2csc3cnc(NC4CCCCC4)nc23)c1")
"upper band"

* * *

// inhibition at 10 µM lookup, one value per entry
Experimental Target: UniProt P10635
Sequence (P10635 whole entry): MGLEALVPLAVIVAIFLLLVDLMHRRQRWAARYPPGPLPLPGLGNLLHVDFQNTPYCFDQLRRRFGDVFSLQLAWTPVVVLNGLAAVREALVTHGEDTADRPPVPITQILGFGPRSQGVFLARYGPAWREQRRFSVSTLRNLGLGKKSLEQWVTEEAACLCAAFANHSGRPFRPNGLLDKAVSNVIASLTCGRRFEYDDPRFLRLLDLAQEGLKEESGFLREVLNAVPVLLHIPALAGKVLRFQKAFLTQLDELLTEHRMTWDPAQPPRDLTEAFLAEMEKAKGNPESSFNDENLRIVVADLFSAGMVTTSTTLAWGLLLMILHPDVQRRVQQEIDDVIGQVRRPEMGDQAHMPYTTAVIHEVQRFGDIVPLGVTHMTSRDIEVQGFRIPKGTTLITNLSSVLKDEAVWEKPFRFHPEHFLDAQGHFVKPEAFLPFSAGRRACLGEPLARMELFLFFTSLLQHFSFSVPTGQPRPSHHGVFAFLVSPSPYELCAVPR
Experiment Summary: Inhibition of CYP2D6 (unknown origin) at 10 uM relative to control
Assay type: ADME
Measured Attribute: inhibition at 10 µM

>>> experimental_result("CS(=O)(=O)Nc1cccc(-c2csc3cnc(Nc4ccc(N5CCC(O)CC5)cc4)nc23)c1")
"61.5%"
>>> experimental_result("CCN1CCN(c2ccc(Nc3ncc4scc(-c5cccc(OC)c5)c4n3)cc2)CC1")
"86.4%"
>>> experimental_result("CS(=O)(=O)Nc1cccc(-c2csc3cnc(Nc4ccc(N5CCNCC5)cc4)nc23)c1")
"84.7%"
>>> experimental_result("CCN1CCN(c2ccc(Nc3ncc4scc(-c5cccc([N+](=O)[O-])c5)c4n3)cc2)CC1")
"100%"
>>> experimental_result("CNC(=O)c1ccccc1Nc1nc(Nc2ccc(N3CCOCC3)cc2OC)ncc1Cl")
"83.2%"
>>> experimental_result("CCN1CCN(c2ccc(Nc3ncc4scc(-c5cccc(NS(C)(=O)=O)c5)c4n3)cc2)CC1")
"100%"
>>> experimental_result("CCN1CCN(c2ccc(Nc3ncc4scc(-c5ccccc5)c4n3)cc2)CC1")
"84.1%"
>>> experimental_result("CN(c1ncccc1CNc1nc(Nc2ccc3c(c2)CC(=O)N3)ncc1C(F)(F)F)S(C)(=O)=O [PF-00562271]")
"90.5%"
>>> experimental_result("CCN1CCN(c2ccc(Nc3ncc4scc(-c5cccc(N6CCCS6(=O)=O)c5)c4n3)cc2)CC1")
"91.3%"
>>> experimental_result("CCN1CCN(c2ccc(Nc3ncc4scc(-c5ccc6cc[nH]c6c5)c4n3)cc2)CC1")
"89.4%"

* * *

Experimental Target: Focal adhesion kinase 1 (Homo sapiens, UniProt Q05397)
Experiment Summary: Inhibition of recombinant FAK (unknown origin) by radiometric kinase assay
pIC50: −log10 of the molar value.
Classification field: enter True for pIC50 values not below 7, False for values below it.

>>> answer_label("COc1cc(Nc2ncc3scc(-c4ccccc4S(C)(=O)=O)c3n2)cc(OC)c1OC")
"False"
>>> answer_label("CCOC(=O)c1cccc(-c2csc3cnc(Nc4ccc(N5CCN(CC)CC5)cc4)nc23)c1")
"False"
>>> answer_label("CNC(=O)c1ccccc1-c1csc2cnc(Nc3cc(OC)c(OC)c(OC)c3)nc12")
"True"
>>> answer_label("COc1cc(Nc2ncc3scc(-c4ccccc4N(C)S(C)(=O)=O)c3n2)cc(OC)c1OC")
"True"
>>> answer_label("CCN1CCN(c2ccc(Nc3ncc4scc(-c5cccc(C(=O)O)c5)c4n3)cc2)CC1")
"True"
>>> answer_label("CCN1CCN(c2ccc(Nc3ncc4scc(-c5ccc6cc[nH]c6c5)c4n3)cc2)CC1")
"True"
>>> answer_label("CCN1CCN(c2ccc(Nc3ncc4scc(-c5ccccn5)c4n3)cc2)CC1")
"True"
>>> answer_label("CS(=O)(=O)Nc1cccc(-c2csc3cnc(NC4CC4)nc23)c1")
"False"
>>> answer_label("CCN1CCN(c2ccc(Nc3ncc4scc(-c5cccc(C(=O)NC)c5)c4n3)cc2)CC1")
"True"

* * *

Test system: BaF3
Experiment Summary: Antiproliferative activity against mouse Ba/F3 cells assessed as growth inhibition measured after 72 hrs by CellTiter-Glo assay
Type: functional
Condition Info: Mus musculus, BaF3
Measured Attribute: GI50 (nM)

>>> experimental_result("CCN1CCN(c2ccc(Nc3ncc4scc(-c5cccc(N6CCCS6(=O)=O)c5)c4n3)cc2)CC1")
371
>>> experimental_result("CCN1CCN(c2ccc(Nc3ncc4scc(-c5cccc(S(=O)(=O)NC)c5)c4n3)cc2)CC1")
468
>>> experimental_result("CCN1CCN(c2ccc(Nc3ncc4scc(-c5ccc6cc[nH]c6c5)c4n3)cc2)CC1")
647
>>> experimental_result("CCN1CCN(c2ccc(Nc3ncc4scc(-c5cccc(S(C)(=O)=O)c5)c4n3)cc2)CC1")
427
>>> experimental_result("CCN1CCN(c2ccc(Nc3ncc4scc(-c5cccc(N(C)S(C)(=O)=O)c5)c4n3)cc2)CC1")
695
>>> experimental_result("CCN1CCN(c2ccc(Nc3ncc4scc(-c5cccnc5)c4n3)cc2)CC1")
596
>>> experimental_result("CCN1CCN(c2ccc(Nc3ncc4scc(-c5ccccn5)c4n3)cc2)CC1")
206
>>> experimental_result("CCN1CCN(c2ccc(Nc3ncc4scc(-c5cccc([N+](=O)[O-])c5)c4n3)cc2)CC1")
511
>>> experimental_result("CS(=O)(=O)Nc1cccc(-c2csc3cnc(Nc4ccc(N5CCNCC5)cc4)nc23)c1")
550
>>> experimental_result("CCN1CCN(c2ccc(Nc3ncc4scc(-c5cccc(NS(C)(=O)=O)c5)c4n3)cc2)CC1")
428
>>> experimental_result("CNC(=O)c1cc(Oc2ccc(NC(=O)Nc3ccc(Cl)c(C(F)(F)F)c3)cc2)ccn1 [SORAFENIB]")
5420
>>> experimental_result("CCN1CCN(c2ccc(Nc3ncc4scc(-c5ccccc5)c4n3)cc2)CC1")
174
>>> experimental_result("CCN1CCN(c2ccc(Nc3ncc4scc(-c5cccc(OC)c5)c4n3)cc2)CC1")
405

* * *

Experimental Target: CYP1A2 (Homo sapiens, UniProt P05177)
Sequence (P05177 whole entry): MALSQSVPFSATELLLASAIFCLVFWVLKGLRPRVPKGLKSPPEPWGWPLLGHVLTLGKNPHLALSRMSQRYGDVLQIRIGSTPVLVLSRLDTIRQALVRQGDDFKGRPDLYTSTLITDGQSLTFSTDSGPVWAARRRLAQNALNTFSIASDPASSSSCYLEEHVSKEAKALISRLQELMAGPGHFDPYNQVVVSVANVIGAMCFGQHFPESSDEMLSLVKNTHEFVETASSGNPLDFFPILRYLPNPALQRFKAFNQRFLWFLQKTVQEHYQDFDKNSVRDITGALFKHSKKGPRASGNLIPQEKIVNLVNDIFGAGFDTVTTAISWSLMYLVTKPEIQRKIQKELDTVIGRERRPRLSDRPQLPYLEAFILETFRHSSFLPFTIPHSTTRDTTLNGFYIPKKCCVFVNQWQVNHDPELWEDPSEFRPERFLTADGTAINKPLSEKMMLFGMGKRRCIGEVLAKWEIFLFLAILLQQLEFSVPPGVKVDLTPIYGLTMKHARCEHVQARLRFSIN
Experiment Summary: Inhibition of CYP1A2 (unknown origin) at 10 uM relative to control
Type: ADME
Measured Attribute: inhibition at 10 µM

>>> experimental_result("CS(=O)(=O)Nc1cccc(-c2csc3cnc(Nc4ccc(N5CCNCC5)cc4)nc23)c1")
"67.5%"
>>> experimental_result("CCN1CCN(c2ccc(Nc3ncc4scc(-c5ccc6cc[nH]c6c5)c4n3)cc2)CC1")
"67.3%"
>>> experimental_result("CCN1CCN(c2ccc(Nc3ncc4scc(-c5cccc(N6CCCS6(=O)=O)c5)c4n3)cc2)CC1")
"67.9%"
>>> experimental_result("CNC(=O)c1ccccc1Nc1nc(Nc2ccc(N3CCOCC3)cc2OC)ncc1Cl")
"73.3%"
>>> experimental_result("CCN1CCN(c2ccc(Nc3ncc4scc(-c5cccc(OC)c5)c4n3)cc2)CC1")
"35.1%"
>>> experimental_result("CS(=O)(=O)Nc1cccc(-c2csc3cnc(Nc4ccc(N5CCC(O)CC5)cc4)nc23)c1")
"34.9%"
>>> experimental_result("CCN1CCN(c2ccc(Nc3ncc4scc(-c5ccccc5)c4n3)cc2)CC1")
"30.9%"
>>> experimental_result("CCN1CCN(c2ccc(Nc3ncc4scc(-c5cccc([N+](=O)[O-])c5)c4n3)cc2)CC1")
"44.8%"
>>> experimental_result("CN(c1ncccc1CNc1nc(Nc2ccc3c(c2)CC(=O)N3)ncc1C(F)(F)F)S(C)(=O)=O")
"91.2%"
>>> experimental_result("CCN1CCN(c2ccc(Nc3ncc4scc(-c5cccc(NS(C)(=O)=O)c5)c4n3)cc2)CC1")
"89.2%"

* * *

Experimental Target: UniProtKB P06239
Sequence (P06239 whole entry): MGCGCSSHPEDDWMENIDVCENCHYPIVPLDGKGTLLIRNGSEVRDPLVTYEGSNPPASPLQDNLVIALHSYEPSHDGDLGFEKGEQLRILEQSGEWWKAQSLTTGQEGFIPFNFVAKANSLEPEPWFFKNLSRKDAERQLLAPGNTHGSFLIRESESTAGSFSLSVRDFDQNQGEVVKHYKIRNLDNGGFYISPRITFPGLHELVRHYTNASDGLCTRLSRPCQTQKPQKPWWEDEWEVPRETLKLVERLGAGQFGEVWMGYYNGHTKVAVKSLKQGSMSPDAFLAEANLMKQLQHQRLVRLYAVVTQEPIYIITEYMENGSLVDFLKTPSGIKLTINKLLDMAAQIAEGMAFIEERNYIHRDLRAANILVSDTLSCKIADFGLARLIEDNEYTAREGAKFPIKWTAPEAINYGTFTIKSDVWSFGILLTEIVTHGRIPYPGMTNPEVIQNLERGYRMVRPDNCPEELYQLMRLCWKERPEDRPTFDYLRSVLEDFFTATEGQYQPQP
pIC50: −log10 of the molar value.
Measured Attribute: pIC50

>>> experimental_result("CCN1CCN(c2ccc(Nc3ncc4scc(-c5cccc(NS(C)(=O)=O)c5)c4n3)cc2)CC1")
8.11

* * *

Tested on: MDA-MB-231
Experiment Summary: Antiproliferative activity against human MDA-MB-231 cells assessed as growth inhibition measured after 72 hrs by CellTiter-Glo assay
Format: functional
// GI50 lookup, one value per entry
Measured Attribute: GI50 (µM)

>>> experimental_result("CS(=O)(=O)Nc1cccc(-c2csc3cnc(Nc4ccc(N5CCC(O)CC5)cc4)nc23)c1")
0.44
>>> experimental_result("CS(=O)(=O)Nc1cccc(-c2csc3cnc(Nc4ccc(N5CCOCC5)cc4)nc23)c1")
0.4
>>> experimental_result("CS(=O)(=O)Nc1cccc(-c2csc3cnc(NC4CC4)nc23)c1")
43.5
>>> experimental_result("COc1cc(Nc2ncc3scc(-c4cccc(NS(C)(=O)=O)c4)c3n2)cc(OC)c1OC")
0.41
>>> experimental_result("CS(=O)(=O)Nc1cccc(-c2csc3cnc(NC4CCCCC4)nc23)c1")
7.73
>>> experimental_result("CS(=O)(=O)Nc1cccc(-c2csc3cnc(N)nc23)c1")
27.8
>>> experimental_result("CN(C)c1ccc(Nc2ncc3scc(-c4cccc(NS(C)(=O)=O)c4)c3n2)cc1")
3.32
>>> experimental_result("CS(=O)(=O)Nc1cccc(-c2csc3cnc(Nc4ccc(N5CCCCC5)cc4)nc23)c1")
3.38
>>> experimental_result("CS(=O)(=O)Nc1cccc(-c2csc3cnc(Nc4ccccc4)nc23)c1")
26.9
